All figures here come from patent US9409952B2.

- assay: Metabolic stability in human hepatic microsome
- Type: in vitro ADME
- experimental.parameters: microsomes, pH 7.4; human hepatic microsome, NADPH(+); read-out: CL NADPH(+)
Starred links: 1 amine or outer side, 2 acyl side, 3 side chain; linkers in the order of their positions; H or OH if unused. Positions of bridges follow the written chain, without caps; N, C: chain ends. Non-standard residues stand in square brackets, D forms with d. Residues, ends and D or L forms follow the SMILES beside them. *: point of attachment. NMeF = CN[C@@H](Cc1ccccc1)C(=O)O; NMeGABA = CN(CCCC(=O)[*:2])[*:1]; NMeL = CN[C@@H](CC(C)C)C(=O)O; NMeV = CN[C@H](C(=O)O)C(C)C; NMeS = CN[C@@H](CO)C(=O)O; NMeA = CN[C@@H](C)C(=O)O; Piperidide = C1CCN(*)CC1; β3hA = C[C@H](N)CC(=O)O; Sar = CNCC(=O)O; tBu = CC(C)(C)*
readout.kind: log10 microsomal CLint at 1 uM (log10 of the value in µL/min/mg)
Values reflect log10 of reported microsomal CLint at 1 uM (µL/min/mg).

Recorded results for 5 molecules are shown here.
molecule	readout.kind	assay.value
CC[C@H](C)[C@H](NC(=O)[C@H](CC(C)C)NC(=O)[C@H](CC(C)C)N(C)C(=O)CN(C)C(=O)[C@@H]1CC(=O)N[C@H](C)C(=O)N[C@@H]([C@@H](C)O)C(=O)N(C)[C@@H](CC(C)C)C(=O)N[C@@H]([C@@H](C)CC)C(=O)N(C)[C@@H](CC(C)C)C(=O)N[C@@H](CC(C)C)C(=O)N1)C(=O)N1CCCCC1 [DP-919] ([dA]T[NMeL]I[NMeL]LD[Sar][NMeL]LI-Piperidide; lactam N-7)	log10 microsomal CLint at 1 uM	2.11
CC(C)C[C@@H]1NC(=O)[C@H](CC(C)C)N(C)C(=O)[C@H]([C@@H](C)O)NC(=O)[C@H](Cc2ccccc2)N(C)C(=O)CN(C)C(=O)[C@H](CC(C)C)N(C)C(=O)[C@@H](C(C)C)NC(=O)C[C@@H](C(=O)N2CCCCC2)NC1=O [DP-714] ([dV][NMeL][Sar][NMeF]T[NMeL]LD-Piperidide; lactam N-8)	log10 microsomal CLint at 1 uM	2.16
CC(C)C[C@H]1C(=O)N[C@H](C(=O)N2CCCCC2)CC(=O)N(C)CCCC(=O)N(C)[C@@H](Cc2ccccc2)C(=O)N[C@@H]([C@@H](C)O)C(=O)N(C)[C@@H](CC(C)C)C(=O)N[C@@H](COC(C)(C)C)C(=O)N1C [DP-681] ([NMeGABA][NMeF]T[NMeL]S(tBu)[NMeL]D-Piperidide; lactam N-7)	log10 microsomal CLint at 1 uM	2.44
CC(C)C[C@@H]1NC(=O)[C@H](CO)N(C)C(=O)C[C@H](C)NC(=O)[C@H](CC(C)C)N(C)C(=O)[C@H](CC(C)C)N(C)C(=O)[C@@H](C)NC(=O)[C@H](C(C)C)NC(=O)[C@H](CC(C)C)N(C)C(=O)[C@H](C(C)C)NC(=O)[C@H](CC(C)C)N(C)C(=O)CN(C)C1=O [DP-652] (cyclo(L[Sar][NMeL]V[NMeL]V[dA][NMeL][NMeL][β3hA][NMeS]))	log10 microsomal CLint at 1 uM	1.71
CC(C)C[C@@H]1NC(=O)[C@H](CC(C)C)N(C)C(=O)[C@H](C)NC(=O)[C@H](C)N(C)C(=O)[C@H]([C@@H](C)O)NC(=O)CN(C)C(=O)[C@H](C(C)C)N(C)C(=O)[C@H](CC(C)C)N(C)C(=O)[C@H](Cc2ccccc2)NC(=O)CN(C)C(=O)C[C@@H](C(=O)N2CCCCC2)NC1=O [DP-167] ([Sar]F[NMeL][NMeV][Sar]T[NMeA]A[NMeL]LD-Piperidide; lactam N-11)	log10 microsomal CLint at 1 uM	1.88

Moving on to another molecule below.
Look at this molecule and give its reported log10 microsomal CLint at 1 uM. CC(C)C[C@H]1C(=O)N(C)[C@@H](C(C)C)C(=O)N[C@@H](C(C)C)C(=O)N[C@H](C(=O)N(C)[C@@H](Cc2ccccc2)C(=O)N[C@@H](C)C(=O)N2CCCCC2)CC(=O)N[C@@H](C)C(=O)N[C@@H](Cc2ccccc2)C(=O)N(C)[C@@H](CC(C)C)C(=O)N[C@@H]([C@@H](C)O)C(=O)N(C)[C@@H](Cc2ccccc2)C(=O)NCC(=O)N1C [DP-187] (AF[NMeL]T[NMeF]G[NMeL][NMeV]VD[NMeF]A-Piperidide; lactam N-10)
1.34
